# System: Sprague-Dawley rats
# assay: Bone mineral apposition rate after a single subcutaneous peptide injection, double tetracycline labelling, distal metaphysis of the right femur
# Format: in vivo, rat
# condition_details: Example 3; male rats; 300 nmoles/kg S.C.; control 1.62
# Procedure: Test peptides were administered by subcutaneous injection to the right gluteal region of the rats after being dissolved in a carrier buffer comprising PBS containing 0.1% heat inactivated BSA at pH 7.4. […] Bone mineral apposition rate as measured for the distal metaphysis of the right femur was the parameter for the assessment of activity. […] Bone mineral apposition rate was measured in 15 randomly selected bone formation sites with two tetracycline labels in the trabecular bone. […]
Bridges are numbered along the chain shown (N, C = ends). Roman numbers before positions name the chains, in order.

>  <substance>
SEQ ID NO: 8, dimer: dimer form of the peptide with SEQ ID NO: 8 (chain 1 Ac-RTNEHTADCK-NH2; chain 2 Ac-RTNEHTADCK-NH2; not fully specified (bridges); cysteine pairing not given here; also: dimer, linkage not given here)

>  <BONE MINERAL APPOSITION, MEAN (Table 6) / µm/d>
1.4

$$$$
>  <substance>
SEQ ID NO: 7, dimer: dimerized form of the peptide having SEQ ID NO:7, disulfide bonding between the cysteine residues (chain 1 Ac-RTQEHTAECK-NH2; chain 2 Ac-RTQEHTAECK-NH2; disulfide I:9-II:9; also: disulfide-linked dimer)

>  <BONE MINERAL APPOSITION, MEAN (Table 6) / µm/d>
1.43

$$$$
>  <substance>
Ac-R T Q E H T A E C K —NH2 (Ac-RTQEHTAECK-NH2) [SEQ ID NO: 7, monomer, prior art peptide]

>  <BONE MINERAL APPOSITION, MEAN (Table 6) / µm/d>
1.86

$$$$
>  <substance>
Ac-R T N E H T A D C K —NH2 (Ac-RTNEHTADCK-NH2) [SEQ ID NO: 8, monomer]

>  <BONE MINERAL APPOSITION, MEAN (Table 6) / µm/d>
2.05

$$$$
